# System: E. coli BW25113 ΔtolC growth inhibition, OD615
# assay-details: growth inhibitors of E. coli tolC mutant, dose response, strain BW25113 ΔtolC::kan (AID 617);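 note: growth read after 20 h at 37 °C with compound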
measurement-kind: IC50

# compound, target-of-assay, result
data = [
    ("CCn1c(SCC(=O)Nc2nc(-c3ccccc3)cs2)nnc1-c1ccccc1O", "E. coli BW25113 ΔtolC growth inhibition, OD615", "6.69 µM"),
    ("Cc1c(C(=O)OC2CCCC2C)[nH]c2c1C(=O)CCC2 (stereo not drawn)", "E. coli BW25113 ΔtolC growth inhibition, OD615", "0.38 µM"),
    ("O=C(Nc1cccc(-c2nnc(-c3ccccc3)o2)c1)c1ccc(Br)o1", "E. coli BW25113 ΔtolC growth inhibition, OD615", "5.69 µM"),
    ("Cn1c(C(=O)N2CCc3ccccc3C2)cc2oc3ccccc3c21", "E. coli BW25113 ΔtolC growth inhibition, OD615", "7.81 µM"),
    ("CCCCn1c(O)c(C(CC)=NCCc2ccccc2)c(=O)[nH]c1=O", "E. coli BW25113 ΔtolC growth inhibition, OD615", "14 µM"),
    ("CCOC(=O)c1cnc(-n2nc(C)cc2C)nc1NC1CCCCC1", "E. coli BW25113 ΔtolC growth inhibition, OD615", "0.54 µM"),
    ("O=C(NCC1CCCO1)c1sc(=S)n2c1[nH]c(=O)c1ccc(C(=O)N3CCCCC3)cc12 (stereo not drawn)", "E. coli BW25113 ΔtolC growth inhibition, OD615", "16.4 µM"),
    ("CN1CCN(c2c(F)cc3c(=O)c(C(=O)O)cn4c3c2SCC4)CC1", "E. coli BW25113 ΔtolC growth inhibition, OD615", "0.91 µM"),
    ("Cc1cccc(S(=O)(=O)C(C#N)c2nc3ccccc3nc2N2CC(C)OC(C)C2)c1 (stereo not drawn)", "E. coli BW25113 ΔtolC growth inhibition, OD615", "14.4 µM"),
    ("O=C(Nc1nc(-c2cccs2)cs1)c1ccc(Cl)s1", "E. coli BW25113 ΔtolC growth inhibition, OD615", "26.3 µM"),
    ("O=C(Nc1ccc(Cl)cc1)NC1CCCC1Cc1ccco1 (stereo not drawn)", "E. coli BW25113 ΔtolC growth inhibition, OD615", "3.63 µM"),
    ("Cc1c(-c2nc(N)nc(Nc3ccccc3)n2)oc2ccccc12", "E. coli BW25113 ΔtolC growth inhibition, OD615", "12.3 µM"),
    ("COc1ccccc1-c1nnc(SC/C(O)=C(\\C#N)c2nc3ccccc3[nH]2)n1C1CCCCC1", "E. coli BW25113 ΔtolC growth inhibition, OD615", "10.2 µM"),
    ("CC(C)N(Cc1nc(-c2ccc(Cl)cc2)no1)C(=O)c1cccs1", "E. coli BW25113 ΔtolC growth inhibition, OD615", "18.9 µM"),
    ("Cc1nc(N2CCN(Cc3ccc4c(c3)OCO4)CC2)c2oc3ccccc3c2n1", "E. coli BW25113 ΔtolC growth inhibition, OD615", "11.6 µM"),
    ("CCSc1nnc(NC(=O)c2nc(-c3ccccc3)n(-c3ccccc3)n2)s1", "E. coli BW25113 ΔtolC growth inhibition, OD615", "2.23 µM"),
    ("COC(=O)c1sccc1NC(=O)c1csc(C)c1", "E. coli BW25113 ΔtolC growth inhibition, OD615", "23.1 µM"),
    ("CCOC(=O)Cc1csc(NC(=O)c2ccc(S(=O)(=O)N3CCCCC3)cc2)n1", "E. coli BW25113 ΔtolC growth inhibition, OD615", "91.3 µM"),
    ("Cc1ccc(S(=O)(=O)N(Cc2ccccc2)Cc2ccco2)cc1", "E. coli BW25113 ΔtolC growth inhibition, OD615", "10.8 µM"),
    ("Cc1ccc(Cl)cc1N1CCN(Cc2nnnn2Cc2ccco2)CC1", "E. coli BW25113 ΔtolC growth inhibition, OD615", "17.6 µM"),
    ("Clc1ccc(OCc2nc(-c3ccccn3)n[nH]2)cc1", "E. coli BW25113 ΔtolC growth inhibition, OD615", "15.4 µM"),
    ("CC1CCc2nc(NC(=O)c3cc(C(C)(C)C)nn3C)sc2C1 (stereo not drawn)", "E. coli BW25113 ΔtolC growth inhibition, OD615", "12.4 µM"),
    ("COc1cc2c(C#N)c(N3CCc4ccccc4C3)nc(N)c2c(N)n1", "E. coli BW25113 ΔtolC growth inhibition, OD615", "23.5 µM"),
    ("O=S(=O)(Nc1ccc2oc(-c3ccccc3)nc2c1)c1ccccc1", "E. coli BW25113 ΔtolC growth inhibition, OD615", "9.38 µM"),
    ("COc1ccc(-c2csc(NCc3ccco3)n2)cc1C", "E. coli BW25113 ΔtolC growth inhibition, OD615", "23.2 µM"),
    ("CCn1cc(C(=O)O)c(=O)c2cc(OC)ccc21", "E. coli BW25113 ΔtolC growth inhibition, OD615", "9.67 µM"),
    ("CCOc1ccccc1N1CCN(Cc2ccc(Br)s2)CC1", "E. coli BW25113 ΔtolC growth inhibition, OD615", "26.6 µM"),
    ("N#Cc1cn(CCOc2ccccc2F)c2ccccc12", "E. coli BW25113 ΔtolC growth inhibition, OD615", "16.1 µM"),
    ("O=S(=O)(Nc1nc2ccccc2nc1NCc1ccco1)c1cccs1", "E. coli BW25113 ΔtolC growth inhibition, OD615", "8.75 µM"),
    ("CCOC(=O)c1cn(CC)c2cc(N3CCSCC3)c(F)cc2c1=O", "E. coli BW25113 ΔtolC growth inhibition, OD615", "1.4 µM"),
    ("Cc1cc(C(=O)CSc2nc3ccccc3o2)c(C)n1C1CC1", "E. coli BW25113 ΔtolC growth inhibition, OD615", "7.02 µM"),
    ("CCOC(=O)N1CCN(c2nc(N(c3ccccc3)c3ccccc3)nc(-n3ccnc3)n2)CC1", "E. coli BW25113 ΔtolC growth inhibition, OD615", "20.3 µM"),
    ("COc1ccc(-c2cc(C(=O)N3CCc4ccccc4C3)no2)cc1OC", "E. coli BW25113 ΔtolC growth inhibition, OD615", "16.6 µM"),
    ("Cc1ccc(C)n1-n1c(C)nc2sc3c(c2c1=O)CCCCC3", "E. coli BW25113 ΔtolC growth inhibition, OD615", "69.2 µM"),
    ("CCOC(=O)c1c(-c2ccc(OC)cc2)oc2ccc(OC(=O)N(C)C)cc12", "E. coli BW25113 ΔtolC growth inhibition, OD615", "12.9 µM"),
    ("COc1ccc2nc(N3CCC(C)CC3)c(C#N)cc2c1", "E. coli BW25113 ΔtolC growth inhibition, OD615", "28.9 µM"),
    ("CC(C)(C)N1C(=O)Cc2c1nc(N)c1c(N)nc(N3CCCCC3CO)c(C#N)c21 (stereo not drawn)", "E. coli BW25113 ΔtolC growth inhibition, OD615", "6.59 µM"),
    ("COc1ccc(-n2c(C)cc(C(=O)COC(=O)Cn3cnc4ccccc43)c2C)cc1", "E. coli BW25113 ΔtolC growth inhibition, OD615", "3.33 µM"),
]

Where do the numbers come from? From PubChem BioAssay AID617.
